Where do these numbers come from? They come from patent US7825256B2.

# target-desc: UniProtKB P35228
# assay-notes: DAN assay, hiNOS expressed in transiently transfected HEK293 cells
# recorded-conditions: HEK293 cells transiently transfected with hiNOS
value-type: EC50

Consider the compound shown here: Cc1cc(CNC(=O)C2CCCN2Cc2ccco2)nc(-n2ccnc2)n1 (stereo not shown) [Example 118] What is its recorded EC50? > 50000 nM

Consider the compound shown here: COc1ccc(CNCCCN(C)c2nc(-n3ccnc3)ns2)cc1 [Example 8] What is its recorded EC50? < 1000 nM

Consider the compound shown here: Cc1cc(C2CCCN2CCNCc2ccc3c(c2)OCO3)nc(-n2ccnc2)n1 (single isomer, unassigned) [Example 132] What is its recorded EC50? < 1000 nM

Consider the compound shown here: Cc1cc(C2C(C(=O)NCCc3ccc4c(c3)OCCO4)CCN2C)nc(-n2ccnc2)n1 (stereo not shown) [Example 124] What is its recorded EC50? < 1000 nM

Consider the compound shown here: Cc1cc(C(C)NCCNCc2ccc3c(c2)OCO3)nc(-n2ccnc2)n1 (stereo not shown) [Example 38] What is its recorded EC50? < 1000 nM

---

# target-desc: UniProt P35228
# assay-notes: DAN assay, hiNOS expressed in transiently transfected HEK293 cells
# recorded-conditions: HEK293 cells transiently transfected with hiNOS
value-type: EC50

Some solved entries appear below for comparison.
Cc1cc(CNC(=O)C2CCCN2Cc2cccc(C(F)(F)F)c2)nc(-n2ccnc2)n1 (stereo not drawn) [Example 108] : > 50 µM
CCOC(=O)C(CC(=O)NCCc1ccc2c(c1)OCO2)c1nc(-n2ccnc2)ns1 (stereo not drawn) [Example 67] : < 1 µM
c1cncc(CN(CCCNCc2ccc3c(c2)OCO3)c2nc(-n3ccnc3)ns2)c1 [Example 102] : < 1 µM
CN(CCCNCc1ccncc1)c1nc(-n2ccnc2)ns1 [Example 21] : > 50 µM
CN(CCCNCc1ccc(F)c(F)c1)c1nc(-n2ccnc2)ns1 [Example 9] : > 50 µM
c1cn(-c2nsc(N3CCN(Cc4ccc5c(c4)OCO5)CC3)n2)cn1 [Example 33] : < 50 µM
Cc1cc(C(C)NCCNCc2ccc3c(c2)OCCO3)nc(-n2ccnc2)n1 (stereo not drawn) [Example 45] : < 1 µM
C[C@H](Nc1nc(-n2ccnc2)ns1)C(=O)NCCc1ccc2c(c1)OCO2 [Example 23] : < 1 µM

Proceeding to the next compound to report its EC50.
Consider the compound shown here: O=C(NCCc1ccc2c(c1)OCO2)[C@H]1CCCN1c1nc(-n2ccnc2)ns1 [Example 29] What is its recorded EC50? < 1 µM

---

# target-desc: hiNOS (Homo sapiens, UniProt P35228)
# assay-notes: DAN assay, hiNOS expressed in transiently transfected HEK293 cells
# recorded-conditions: HEK293 cells transiently transfected with hiNOS
value-type: EC50

Some solved entries appear below for comparison.
O=C(O)CN(CCCNCc1ccc2c(c1)OCO2)c1nc(-n2ccnc2)ns1 : < 50 µM
N#CCN(CCCNCc1ccc2c(c1)OCO2)c1nc(-n2ccnc2)ns1 : < 1 µM
CN(CC1CCN(Cc2ccc3c(c2)OCO3)C1)c1nc(-n2ccnc2)ns1 (centres unmarked) : < 1 µM
Cc1cc(CNC(=O)C2CCCN2Cc2ccsc2)nc(-n2ccnc2)n1 (centres unmarked) : > 50 µM
CCOC(=O)C(NC(=O)CNCc1ccc2c(c1)OCO2)c1cc(C)nc(-n2ccnc2)n1 (centres unmarked) : < 1 µM
c1cn(-c2nsc(N(CCCNCc3ccc4c(c3)OCO4)Cc3ccc4occc4c3)n2)cn1 : < 1 µM
Cc1cc(C(C)(C)C(=O)NCCCc2ccc3c(c2)OCO3)nc(-n2ccnc2)n1 : < 50 µM

Proceeding to the next compound to report its EC50.
Consider the compound shown here: CNC(=O)C(NC(=O)CNCc1ccc2c(c1)OCO2)c1cc(C)nc(-n2ccnc2)n1 (centres unmarked) What is its recorded EC50? < 1 µM

---

# target-desc: hiNOS (Homo sapiens)
# assay-notes: DAN assay, hiNOS expressed in transiently transfected HEK293 cells
# recorded-conditions: HEK293 cells transiently transfected with hiNOS
value-type: EC50

Cc1cc(CNC(=O)C2CCCN2Cc2ccc(Cl)cc2)nc(-n2ccnc2)n1 (centres unmarked) : < 50000 nM

Consider the molecule shown here: NCCCN(Cc1nccs1)c1nc(-n2ccnc2)ns1 What is its recorded EC50? < 1000 nM

Consider the molecule shown here: CC(C)[C@H](Nc1nc(-n2ccnc2)ns1)C(=O)NCCc1ccc2c(c1)OCO2 What is its recorded EC50? < 1000 nM

Consider the molecule shown here: CN(CCCNCc1c(Cl)cccc1Cl)c1nc(-n2ccnc2)ns1 What is its recorded EC50? > 50000 nM

Consider the molecule shown here: Cc1cc(C(C)NCCN(C)Cc2ccc3c(c2)OCO3)nc(-n2ccnc2)n1 (single isomer, unassigned) [Example 130] What is its recorded EC50? < 1000 nM

Consider the molecule shown here: Cc1cc(CN(CC(N)=O)C(=O)NCCc2ccc3c(c2)OCO3)nc(-n2ccnc2)n1 What is its recorded EC50? < 1000 nM

Consider the molecule shown here: CN(CCCN(Cc1ccc2c(c1)OCO2)C(=O)OC(C)(C)C)c1nc(-n2cnc(I)c2)ns1 What is its recorded EC50? > 50000 nM

Consider the molecule shown here: Cc1cc(C(C)NCCNCc2ccc(-n3cccc3)cc2)nc(-n2ccnc2)n1 (centres unmarked) What is its recorded EC50? < 50000 nM

Consider the molecule shown here: Cc1cc(CNC(=O)C2CCCN2Cc2ccc(C(F)(F)F)cc2)nc(-n2ccnc2)n1 (centres unmarked) What is its recorded EC50? > 50000 nM

Consider the molecule shown here: c1cn(-c2nsc(N(CCCNCc3ccc4c(c3)OCO4)C3CC3)n2)cn1 What is its recorded EC50? < 1000 nM

---

# target-desc: hiNOS (Homo sapiens, UniProt P35228)
# assay-notes: DAN assay, hiNOS expressed in transiently transfected HEK293 cells
# recorded-conditions: HEK293 cells transiently transfected with hiNOS
value-type: EC50

Some solved entries appear below for comparison.
Cc1cc(CNC(=O)CNCc2ccc3c(c2)OCO3)nc(-n2ccnc2)n1 : < 1000 nM
CCOC(=O)CN(CCCNCc1ccc2c(c1)OCO2)c1nc(-n2ccnc2)ns1 : < 1000 nM
Cc1cc(C2CCCN2C(=O)CNCc2ccc3c(c2)OCO3)nc(-n2ccnc2)n1 (stereo not drawn) : < 1000 nM
Cc1cc(CNC(=O)C2CCCN2Cc2ccc(OCCO)cc2)nc(-n2ccnc2)n1 (stereo not drawn) : > 50000 nM
CN(CCCNCc1cccs1)c1nc(-n2ccnc2)ns1 : > 50000 nM

Consider the molecule shown here: Cc1cc(C(C)NCCNC(C)c2ccc3c(c2)OCO3)nc(-n2ccnc2)n1 (stereo not drawn) What is its recorded EC50? < 1000 nM

Consider the molecule shown here: CN(CCCN(C)c1nc(-n2ccnc2)ns1)Cc1ccc2c(c1)OCO2 What is its recorded EC50? < 1000 nM

Consider the molecule shown here: CNC(=O)CN(CCCNCc1ccc2c(c1)OCO2)c1nc(-n2ccnc2)ns1 What is its recorded EC50? < 1000 nM

Consider the molecule shown here: Cc1cc(C(C)(C)CCCNCc2ccc3c(c2)OCO3)nc(-n2ccnc2)n1 What is its recorded EC50? < 1000 nM

---

Collected pEC50 values appear next to each entry.
# target-desc: hiNOS (Homo sapiens)
# assay-notes: DAN assay, hiNOS expressed in transiently transfected HEK293 cells
# recorded-conditions: HEK293 cells transiently transfected with hiNOS
pEC50: −log10 of the molar value. Where a name gives a salt, the structure may show the parent alone.

Some solved entries appear below for comparison.
NC(=O)CN(CCCNCc1ccc2c(c1)OCO2)c1nc(-n2ccnc2)ns1 : > 6.00
O=C(NCCc1ccc2c(c1)OCCO2)[C@H]1C[C@H](O)CN1c1nc(-n2ccnc2)ns1 : > 6.00

Give recorded pEC50 with hiNOS (Homo sapiens) for the following compound: CN(CCNCCc1ccc2c(c1)OCCO2)c1nc(-n2ccnc2)ns1 > 6.00

Give recorded pEC50 with hiNOS (Homo sapiens) for the following compound: Cc1cc(C2CCC(=O)N2CCNCc2ccc3c(c2)OCCO3)nc(-n2ccnc2)n1 (centres unmarked) [Example 139, hydrochloride] > 6.00

Give recorded pEC50 with hiNOS (Homo sapiens) for the following compound: N=C(CN(CCCNCc1ccc2c(c1)OCO2)c1nc(-n2ccnc2)ns1)NO > 6.00

Give recorded pEC50 with hiNOS (Homo sapiens) for the following compound: Cc1cc(C2CCCN2CC(=O)NCc2ccc3c(c2)OCO3)nc(-n2ccnc2)n1 (centres unmarked) > 6.00

Give recorded pEC50 with hiNOS (Homo sapiens) for the following compound: CN(CCCNCc1ccc2c(c1)OCO2)c1nc(-n2cncn2)ns1 < 4.30

Give recorded pEC50 with hiNOS (Homo sapiens) for the following compound: CN(CCCNCc1cc2ccccc2n1C)c1nc(-n2ccnc2)ns1 < 4.30
